Molecular target: T1, recombinant human IL-25 protein (human, UniProt Q9H293 33-177)
T1 sequence: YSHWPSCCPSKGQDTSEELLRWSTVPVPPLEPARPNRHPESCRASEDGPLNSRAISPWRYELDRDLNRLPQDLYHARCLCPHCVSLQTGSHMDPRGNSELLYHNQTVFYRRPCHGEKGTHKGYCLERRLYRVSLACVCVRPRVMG
Assay: cell-based or functional assay
TEST_READOUT: IC50, IL-25 induced CXCL1 production in HT-29 cells (nM)

1. IL25Ab3 (antibody, V domains shown, detected with anti-human IgG or anti-human kappa reagents; also called anti-IL-25Ab3; mouse origin of anti-IL-25 specific antibody) VH: EVQLQQSGPELVKPGGSVRISCKASGYSFTGYTMNWVKQSHGKNLEWIGLINPDNGGTSHKQRFMGKATLTVDKSSSTAYMELLSLTSEDSAVYYCAREGYYGPSPFHHYAMDYWGQGTSVTVSS VL: DIQMTQTTSSLSASLGDRVTISCSASQDISNYLNWYQQKPDGTIKLLIYYTSTLHSGVPSRFSGSGSGTDYSLTISNLEPEDIATYYCQQYSKLPYTFGGGTKLEIK ... 0.144
